pIC50: −log10 of the molar value.
// MAPK1(ERK2) enzyme (Homo sapiens) pIC50 records

// returns reported pIC50 for input Cn1nccc1Nc1cc(-c2cc3n(c2)CC(F)(F)Cn2c(COC(F)(F)F)nnc2-3)c(Cl)cn1 [Compound 107]
≥ 8.30

Also Cc1cnc(Nc2ccnn2C)cc1-c1cc2n(c1)C[C@H](CF)n1c-2nnc1C(F)(F)c1cccc(F)c1F [Compound 180] , if possible.
< 8.00

Also Cc1cnc(Nc2ccnn2C)nc1-c1cc2c3nnc(C4(C(F)(F)F)CCC4)n3c(C)cn2c1 [Compound 236] , if possible.
≥ 8.30
